The measurements presented in this section are drawn from patent US20030148958A1.

target: corticotropin releasing factor 1 receptor; assay: cell-based or functional assay
Ends that are not written are not given here.
value_kind: CRF1R EC50 (nM)
Numbers only, in nM.

Known results for binders:
DNPSLSIDLPFLLLRTLLELARTQSQRERAEQNAIIFASV-NH2 [SEQ ID NO 180] : 125
SQEPPISLDLPFGLLREVLEMTKADQLAQQAHSNRKLLDIA-NH2 [SEQ ID NO 103] : 100
IVLSLDVPIGLLQILLEMTKADQLAQQAHSNRKLLDIA-NH2 [SEQ ID NO 155] : 40.6
ZGPPISIDLPYYLLRKMIEIEKQEKEKQQAANNRLLLDTI (C-terminal amide) [SEQ ID NO 40] : 102

Note: attention shifts to another entry.
Problem: Quick one: give measured CRF1R EC50 for ZGPPISIDLPFQLLRKMIEIEKQEKEKQQATTNRLLLATV (C-terminal amide) [SEQ ID NO 17]
Result: 260
